Target: UniProtKB P09619
Sequence (P09619 whole entry, the tested form may be a part): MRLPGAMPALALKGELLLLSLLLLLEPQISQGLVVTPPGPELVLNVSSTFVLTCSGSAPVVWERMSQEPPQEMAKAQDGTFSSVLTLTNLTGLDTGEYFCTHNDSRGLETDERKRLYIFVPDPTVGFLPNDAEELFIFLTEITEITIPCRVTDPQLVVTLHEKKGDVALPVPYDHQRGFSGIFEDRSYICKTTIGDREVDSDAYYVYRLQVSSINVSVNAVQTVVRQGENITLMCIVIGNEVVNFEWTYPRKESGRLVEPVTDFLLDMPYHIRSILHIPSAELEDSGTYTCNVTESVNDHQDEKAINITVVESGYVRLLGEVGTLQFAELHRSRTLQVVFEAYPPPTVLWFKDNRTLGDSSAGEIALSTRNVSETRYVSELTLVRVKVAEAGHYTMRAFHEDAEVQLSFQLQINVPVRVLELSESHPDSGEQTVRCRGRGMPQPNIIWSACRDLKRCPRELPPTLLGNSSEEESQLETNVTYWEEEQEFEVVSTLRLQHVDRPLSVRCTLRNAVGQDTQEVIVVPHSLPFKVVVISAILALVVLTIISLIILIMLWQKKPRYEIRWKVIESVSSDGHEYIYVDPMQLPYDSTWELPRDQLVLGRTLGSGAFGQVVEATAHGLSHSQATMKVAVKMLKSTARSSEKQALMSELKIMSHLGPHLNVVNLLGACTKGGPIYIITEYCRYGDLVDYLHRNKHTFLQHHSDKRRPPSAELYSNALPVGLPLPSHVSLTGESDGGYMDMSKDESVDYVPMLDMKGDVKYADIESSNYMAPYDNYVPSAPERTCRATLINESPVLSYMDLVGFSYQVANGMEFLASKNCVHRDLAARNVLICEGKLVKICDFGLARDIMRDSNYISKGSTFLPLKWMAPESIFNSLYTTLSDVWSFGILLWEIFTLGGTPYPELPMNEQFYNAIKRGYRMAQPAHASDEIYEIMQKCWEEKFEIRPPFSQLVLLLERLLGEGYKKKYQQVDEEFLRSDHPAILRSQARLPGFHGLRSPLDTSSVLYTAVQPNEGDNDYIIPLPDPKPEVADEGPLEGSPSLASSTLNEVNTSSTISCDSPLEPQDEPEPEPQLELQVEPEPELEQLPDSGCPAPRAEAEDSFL
Assay: PDGFRβ Kinase Assay: Biochemical PDGFRβ kinase assays were performed in 96 well microtiter plates that were coated overnight with 75 μg of poly-Glu-Tyr (4:1) in 10 mM Phosphate Buffered Saline (PBS), pH 7.4. The coated plates were washed with 2 mls per well PBS+0.05% Tween-20 (PBS-T), blocked by incubation with PBS containing 1% BSA, then washed with 2 mls per well PBS-T prior to starting the reaction. Reactions were carried out in 100 μL reaction volumes containing 36 μM ATP in kinase buffer (50 mM Hepes buffer pH 7.4, 20 mM MgCl2, 0.1 mM MnCl2 and 0.2 mM Na3VO4). Test compounds were reconstituted in 100% DMSO and added to the reaction to give a final DMSO concentration of 5%. Reactions were initiated by the addition 20 ul per well of kinase buffer containing 200-300 ng purified cytoplasmic domain PDGFR-b protein (Millipore). Following a 60 minute incubation at 30° C., the reactions were washed 2 mls per well PBS-T. 100 μl of a monoclonal anti-phosphotyrosine antibody-peroxidase conjugate diluted 1:10,000 in PBS-T was added to the wells for 30 minutes. Following a 2 mls per well wash with PBS-Tween-20, 100 μl of O-Phenylenediamine Dihydrochloride in phosphate-citrate buffer, containing urea hydrogen peroxide, was added to the wells for 7-10 minutes as a colorimetric substrate for the peroxidase. The reaction was terminated by the addition of 100 μl of 2.5N H2SO4 to each well and read using a microplate ELISA reader set at 492 nm.
measured metric: pIC50
Give bare numbers, as −log10 of the molar value.

# input Return pIC50 for the following molecule: Cc1ccc(F)c(NC(=O)c2cccc(C#Cc3cc(C(=O)N=S4(=O)CCOCC4)cnc3N)c2)c1
# output 7.96
